testSystem: UniProtKB P03372
Sequence (P03372 whole entry): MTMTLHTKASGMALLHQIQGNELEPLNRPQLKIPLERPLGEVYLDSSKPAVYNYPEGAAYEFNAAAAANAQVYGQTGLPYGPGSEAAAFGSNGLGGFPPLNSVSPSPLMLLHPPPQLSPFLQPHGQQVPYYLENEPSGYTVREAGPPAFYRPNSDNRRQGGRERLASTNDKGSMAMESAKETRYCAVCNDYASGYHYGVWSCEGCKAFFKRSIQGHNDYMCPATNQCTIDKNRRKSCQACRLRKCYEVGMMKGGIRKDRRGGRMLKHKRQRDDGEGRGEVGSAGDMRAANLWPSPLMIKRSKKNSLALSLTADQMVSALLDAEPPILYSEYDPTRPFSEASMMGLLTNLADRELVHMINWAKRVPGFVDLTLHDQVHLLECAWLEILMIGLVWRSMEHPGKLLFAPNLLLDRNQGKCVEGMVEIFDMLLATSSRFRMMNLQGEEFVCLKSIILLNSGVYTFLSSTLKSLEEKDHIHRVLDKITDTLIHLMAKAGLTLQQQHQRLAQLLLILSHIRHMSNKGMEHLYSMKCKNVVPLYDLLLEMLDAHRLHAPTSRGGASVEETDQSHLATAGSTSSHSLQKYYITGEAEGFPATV
Activity calls are given as the source filed them.
As shown below, each of these compounds has a reported IC50 value.

>>> recordedresult("CC1CC(C(F)(F)C(F)(F)F)n2nc(C(=O)O)cc2N1 (centres undefined)")
"19.9 µM (active)"
>>> recordedresult("CCOC(=O)c1ccc(NC(=O)CSc2nnc(CNc3ccc(OC)cc3)n2C)cc1")
"> 50 µM (not active)"
>>> recordedresult("CCc1cccc2c(C(=O)Cn3nnc(-c4ccc(OC)c(OC)c4)n3)c[nH]c12")
"10.3 µM (active)"

Next, consider the following compound.
*Q* Please respond with reported IC50 (system UniProtKB P03372) for `CCn1c2ccccc2c2cc(NC(=O)CSc3nnc(-c4ccc(OC)cc4)n3N)ccc21` .
*A* 12.2 µM (active)

###

testSystem: Bcl-2-like protein 10 (Homo sapiens)
Sequence (Q9HD36 whole entry): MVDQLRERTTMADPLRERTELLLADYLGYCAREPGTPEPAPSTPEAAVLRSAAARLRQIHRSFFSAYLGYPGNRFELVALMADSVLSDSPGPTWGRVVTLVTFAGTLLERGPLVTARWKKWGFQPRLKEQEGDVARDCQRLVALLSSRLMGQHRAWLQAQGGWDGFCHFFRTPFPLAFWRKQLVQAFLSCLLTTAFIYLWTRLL
experimentSummary: displacers of TR3 peptide from Bcl-B, primary screen, selectivity assay for Bfl-1 inhibitor project, biochemical, fluorescence polarization, FITC-TR3 peptide (AID 748);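 note: fluorescence polarization from a fluorescein-labelled TR3 peptide binding purified Bcl-B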
Calls of active or inactive are those of the source.
Choose the fitting class; nothing outside active, inactive is accepted.

>>> classname("Cc1ccc(-c2nnc(S)n2/N=C/C=C/c2ccccc2[N+](=O)[O-])cc1")
"inactive"
>>> classname("Cc1ccc2c(c1)c(=O)c1c3n2CCN(C(=O)CCl)C3CC1 (centres undefined)")
"active"
>>> classname("Brc1ccc2ncnc(Nc3ccc(N4CCOCC4)cc3)c2c1")
"inactive"

Now turn to the next compound.
*Q* What did the test return for COc1ccc(C2C=C(c3ccc(Br)cc3)Nc3nc(NS(C)(=O)=O)nn32)cc1 (centres undefined) ?
*A* inactive

###

As shown below, each of these compounds has a reported EC50 value.
testSystem: 5-hydroxytryptamine receptor 2A (Mus musculus);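 note: CHO-K1 cells with tagged receptor and beta-arrestin; agonist potency measured as compound-induced activation of the receptor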
Sequence (P35363 whole entry): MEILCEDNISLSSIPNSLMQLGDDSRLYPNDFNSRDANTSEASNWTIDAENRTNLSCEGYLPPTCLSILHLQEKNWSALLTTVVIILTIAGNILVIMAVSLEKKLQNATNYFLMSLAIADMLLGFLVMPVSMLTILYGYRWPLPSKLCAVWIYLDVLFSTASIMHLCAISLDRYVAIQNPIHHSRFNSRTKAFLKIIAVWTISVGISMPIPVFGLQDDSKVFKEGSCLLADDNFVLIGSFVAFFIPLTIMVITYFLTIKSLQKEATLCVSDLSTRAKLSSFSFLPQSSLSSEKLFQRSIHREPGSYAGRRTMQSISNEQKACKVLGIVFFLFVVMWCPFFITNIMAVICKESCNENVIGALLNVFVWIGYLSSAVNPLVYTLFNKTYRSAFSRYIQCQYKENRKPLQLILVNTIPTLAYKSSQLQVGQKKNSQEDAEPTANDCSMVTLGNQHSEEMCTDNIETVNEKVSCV
Assay type: functional, cell-based
The source made the active and inactive calls.

>>> recordedresult("CCOC(=O)N1CCN(Cc2ccc3c(c2)OCO3)CC1")
"1190 nM (active)"

*Q* Specify reported EC50 for the compound shown: `Cc1ccc(CN2CCN(c3ncccn3)CC2)o1`
*A* 4000 nM (active)

*Q* Specify reported EC50 for the compound shown: `O=[N+]([O-])c1cccnc1N1CCN(Cc2ccc3c(c2)OCO3)CC1`
*A* 9.77 nM (active)

*Q* Specify reported EC50 for the compound shown: `COc1cccc(-c2nc(NC(C)C)c3ccccc3n2)c1O`
*A* 8510 nM (active)

###

testSystem: Voltage-gated N-type calcium channel alpha-1B subunit/Amyloid beta A4 precursor protein-binding family A member 1 (Homo sapiens, UniProt Q00975+Q02410)
Sequence (Q00975 whole entry): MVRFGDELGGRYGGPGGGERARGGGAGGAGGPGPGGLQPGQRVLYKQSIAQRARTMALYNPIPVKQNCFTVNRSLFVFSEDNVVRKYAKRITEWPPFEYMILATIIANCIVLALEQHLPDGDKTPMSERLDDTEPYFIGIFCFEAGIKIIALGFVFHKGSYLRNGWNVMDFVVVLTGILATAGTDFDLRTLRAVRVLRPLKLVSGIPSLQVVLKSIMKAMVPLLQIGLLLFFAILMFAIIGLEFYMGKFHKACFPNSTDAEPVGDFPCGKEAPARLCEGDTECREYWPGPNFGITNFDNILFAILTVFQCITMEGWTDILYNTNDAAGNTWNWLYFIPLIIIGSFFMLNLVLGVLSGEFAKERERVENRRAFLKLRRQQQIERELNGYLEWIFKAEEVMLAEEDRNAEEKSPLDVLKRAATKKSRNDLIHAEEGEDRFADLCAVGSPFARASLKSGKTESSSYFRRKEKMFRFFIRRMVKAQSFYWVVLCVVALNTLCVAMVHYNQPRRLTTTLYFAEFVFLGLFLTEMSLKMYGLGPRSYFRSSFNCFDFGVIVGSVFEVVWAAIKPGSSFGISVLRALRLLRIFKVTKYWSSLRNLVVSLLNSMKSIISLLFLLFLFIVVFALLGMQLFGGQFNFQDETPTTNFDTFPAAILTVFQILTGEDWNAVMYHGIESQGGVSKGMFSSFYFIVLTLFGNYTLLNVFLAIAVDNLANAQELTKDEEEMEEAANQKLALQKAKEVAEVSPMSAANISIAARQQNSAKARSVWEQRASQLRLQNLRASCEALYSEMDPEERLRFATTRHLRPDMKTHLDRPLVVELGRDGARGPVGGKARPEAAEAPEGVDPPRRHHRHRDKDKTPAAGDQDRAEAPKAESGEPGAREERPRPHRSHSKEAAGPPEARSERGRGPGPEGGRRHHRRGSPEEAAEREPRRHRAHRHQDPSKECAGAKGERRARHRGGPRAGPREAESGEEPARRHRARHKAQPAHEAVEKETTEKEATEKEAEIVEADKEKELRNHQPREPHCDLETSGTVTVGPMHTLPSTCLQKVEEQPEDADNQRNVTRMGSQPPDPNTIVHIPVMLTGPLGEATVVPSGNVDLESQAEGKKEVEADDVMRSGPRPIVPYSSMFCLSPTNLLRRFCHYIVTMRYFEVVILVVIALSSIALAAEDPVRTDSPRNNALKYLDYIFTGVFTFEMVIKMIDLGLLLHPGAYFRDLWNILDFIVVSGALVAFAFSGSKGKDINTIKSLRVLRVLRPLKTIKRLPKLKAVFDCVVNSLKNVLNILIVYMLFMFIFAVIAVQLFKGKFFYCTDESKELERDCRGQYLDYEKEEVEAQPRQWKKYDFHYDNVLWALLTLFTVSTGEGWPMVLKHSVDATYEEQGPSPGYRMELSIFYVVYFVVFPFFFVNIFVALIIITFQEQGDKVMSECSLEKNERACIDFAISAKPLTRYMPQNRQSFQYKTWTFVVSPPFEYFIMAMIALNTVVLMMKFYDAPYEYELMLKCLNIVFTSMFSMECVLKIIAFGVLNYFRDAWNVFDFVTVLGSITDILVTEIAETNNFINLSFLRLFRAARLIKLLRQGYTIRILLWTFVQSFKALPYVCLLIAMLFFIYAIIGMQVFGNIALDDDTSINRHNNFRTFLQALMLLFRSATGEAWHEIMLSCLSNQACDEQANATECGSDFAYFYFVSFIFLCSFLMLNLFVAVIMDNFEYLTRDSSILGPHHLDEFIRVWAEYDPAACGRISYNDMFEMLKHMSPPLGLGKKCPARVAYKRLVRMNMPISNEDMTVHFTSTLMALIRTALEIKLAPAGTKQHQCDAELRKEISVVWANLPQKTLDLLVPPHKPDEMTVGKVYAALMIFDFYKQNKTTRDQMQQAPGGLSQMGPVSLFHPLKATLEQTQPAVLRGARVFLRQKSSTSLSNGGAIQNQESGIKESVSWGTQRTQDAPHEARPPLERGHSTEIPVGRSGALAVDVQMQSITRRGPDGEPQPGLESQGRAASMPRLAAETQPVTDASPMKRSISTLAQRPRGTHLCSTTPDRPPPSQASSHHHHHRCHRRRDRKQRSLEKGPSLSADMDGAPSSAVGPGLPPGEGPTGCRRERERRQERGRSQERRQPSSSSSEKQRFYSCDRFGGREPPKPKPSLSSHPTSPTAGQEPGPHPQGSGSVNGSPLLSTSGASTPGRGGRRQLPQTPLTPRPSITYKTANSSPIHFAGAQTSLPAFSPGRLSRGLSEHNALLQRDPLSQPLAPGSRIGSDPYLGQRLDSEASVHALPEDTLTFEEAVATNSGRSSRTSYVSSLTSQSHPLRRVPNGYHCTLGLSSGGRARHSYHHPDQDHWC
Sequence (Q02410 whole entry): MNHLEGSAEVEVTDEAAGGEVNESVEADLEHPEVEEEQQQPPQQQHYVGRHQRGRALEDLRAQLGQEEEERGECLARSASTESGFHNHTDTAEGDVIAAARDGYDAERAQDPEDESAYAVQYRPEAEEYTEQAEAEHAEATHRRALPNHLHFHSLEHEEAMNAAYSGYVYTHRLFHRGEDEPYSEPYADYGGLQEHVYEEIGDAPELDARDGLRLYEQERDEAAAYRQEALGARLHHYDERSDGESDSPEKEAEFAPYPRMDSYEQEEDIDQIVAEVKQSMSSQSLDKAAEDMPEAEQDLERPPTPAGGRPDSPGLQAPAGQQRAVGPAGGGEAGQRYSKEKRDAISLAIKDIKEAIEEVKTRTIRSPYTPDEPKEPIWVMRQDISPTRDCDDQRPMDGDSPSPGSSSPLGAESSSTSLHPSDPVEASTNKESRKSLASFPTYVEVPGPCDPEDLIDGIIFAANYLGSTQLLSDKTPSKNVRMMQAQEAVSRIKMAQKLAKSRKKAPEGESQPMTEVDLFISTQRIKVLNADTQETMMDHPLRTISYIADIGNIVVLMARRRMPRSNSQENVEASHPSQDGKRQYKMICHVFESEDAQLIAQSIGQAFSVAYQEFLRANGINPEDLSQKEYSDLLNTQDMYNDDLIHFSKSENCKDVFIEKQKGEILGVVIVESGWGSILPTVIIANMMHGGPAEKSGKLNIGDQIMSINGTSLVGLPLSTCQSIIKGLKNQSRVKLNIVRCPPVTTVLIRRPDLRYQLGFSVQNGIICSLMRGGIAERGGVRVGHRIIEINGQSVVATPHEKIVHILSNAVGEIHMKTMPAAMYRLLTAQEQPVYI
Format: protein assay
The source made the active and inactive calls.
Choose the fitting class; nothing outside true (1) for active, false (0) for inactive is accepted.

Recorded results for 3 compounds are shown here.
>>> classname("O=C(CSc1nc2ccccc2n1CCc1ccccc1)c1ccc(O)c(O)c1")
"false (0)"
>>> classname("COC/C=C/C1=CC2=CC(=O)C(C)(OC(=O)CCC(=O)OC)C(=O)C2=CO1 (stereo not given)")
"true (1)"
>>> classname("O=C1C=CC(=O)N1c1ccc(N2CCCCC2)cc1")
"true (1)"

*Q* What did the test return for `CNC(=S)N=C(Nc1ccc(C)cc1)c1ccccc1` ?
*A* false (0)

*Q* What did the test return for `Cc1cc(C)n(Cc2ccc(C(=O)N/N=C/c3ccc(-c4ccc([N+](=O)[O-])cc4)o3)o2)n1` ?
*A* true (1)
